FYI, the data here is from patent US4322370A.

Experiment: in vivo
Details: mouse, po
endpoint: LD50
Give the value; after it, write the unit.

[ask] State the recorded LD50 for this entry: CN(C)CCOc1ccc2c(c1)C(O)C(C)(C)CC2c1ccc(Cl)cc1 (stereo not shown)
[reply] 11 mg/kg

---

Test: Oral toxicity in mice (deaths, LD50)
Conditions: mouse, in vivo, po
Below: a set of entries, each annotated with reported LD50.

Example cases with answers are listed next.
[ask] Return reported LD50; argument: CN(C)CCOc1ccc2c(c1)C(=O)C(C)(C)CC2c1cccc(C(F)(F)F)c1 (stereo not drawn)
[reply] > 100 mg/kg

[ask] Find the recorded LD50 belonging to CNCC(O)COc1ccc2c(c1)C(=O)C(C)(C)CC2c1ccc(Cl)c(Cl)c1 (stereo not drawn) and report it.
[reply] 100 mg/kg

---
[ask] # lookup: LD50 of CC1c2cc(OCCN(C)C)ccc2C(c2ccc(Cl)cc2)CC1(C)C (stereo not drawn)
[reply] > 100 mg/kg

[ask] // query LD50 value for entry CN(C)CCOc1ccc2c(c1)C(Cl)C(C)(C)CC2c1ccc(Cl)cc1 (stereo not drawn) [CH2 CH3 CHCl Cl H]
[reply] 33 mg/kg

[ask] Given the entry CN(C)CCOc1ccc2c(c1)C(=O)C(C)(C)CC2c1ccc(Cl)cc1 (stereo not drawn) , report its measured LD50.
[reply] 55 mg/kg

[ask] Endpoint output: LD50 of CN(C)CCOc1ccc2c(c1)C(=O)C(C)(C)CC2c1ccc(Cl)c(Cl)c1 (stereo not drawn) . Value?
[reply] 10 to 30 mg/kg
